target: 5-hydroxytryptamine receptor 7 (Homo sapiens, UniProt P34969)
Sequence (P34969 whole entry): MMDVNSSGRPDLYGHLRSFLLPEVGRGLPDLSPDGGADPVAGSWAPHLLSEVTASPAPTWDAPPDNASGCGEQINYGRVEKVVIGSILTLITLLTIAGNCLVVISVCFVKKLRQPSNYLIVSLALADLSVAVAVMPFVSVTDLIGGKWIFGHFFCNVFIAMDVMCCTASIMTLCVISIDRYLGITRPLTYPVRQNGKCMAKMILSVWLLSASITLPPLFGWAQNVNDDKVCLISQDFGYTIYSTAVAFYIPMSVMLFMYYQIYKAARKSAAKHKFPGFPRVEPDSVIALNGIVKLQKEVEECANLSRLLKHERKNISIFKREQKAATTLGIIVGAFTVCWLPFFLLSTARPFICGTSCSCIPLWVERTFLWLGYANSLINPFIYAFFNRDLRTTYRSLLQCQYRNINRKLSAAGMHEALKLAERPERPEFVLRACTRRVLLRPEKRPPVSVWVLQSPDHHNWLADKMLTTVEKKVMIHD
Catalogue of Ki readings, one per entry.
readoutLabel: Ki

>>> measured("COc1ccccc1N1CCN(CCCCC(=O)NCc2ccccc2-c2ccc(Cl)cc2)CC1")
"25.9 nM"
>>> measured("COc1ccccc1N1CCN(CCCCC(=O)NCc2ccccc2-c2ccccc2C)CC1")
"26.1 nM"
>>> measured("COc1ccccc1N1CCN(CCCCCC(=O)NCc2ccccc2-c2ccccc2Cl)CC1")
"15.9 nM"
>>> measured("COc1ccccc1-c1ccccc1CNC(=O)CCCCN1CCN(c2ccccc2OC)CC1")
"31.4 nM"

====

molecular target: 5-hydroxytryptamine receptor 7 (Homo sapiens, UniProt P34969); assay: Displacement of [3H]LSD from 5-HT7R (unknown origin) expressed in CHO-K1 cells by liquid scintillation counting method; assay type: cell-based
pKi: −log10 of the molar value.
readoutLabel: pKi

>>> measured("COc1ccccc1N1CCN(CCCCC(=O)NCc2ccccc2-c2c(OC)cccc2OC)CC1")
7.49
>>> measured("COc1cccc(-c2ccccc2CNC(=O)CCCCN2CCN(c3ccccc3OC)CC2)c1")
7.66
>>> measured("COc1ccccc1N1CCN(CCCCC(=O)NCc2ccccc2-c2ccc(C)cc2)CC1")
7.18
>>> measured("COc1ccccc1N1CCN(CCCCC(=O)NCc2ccccc2-c2ccccc2)CC1")
7.42
>>> measured("COc1ccccc1N1CCN(CCCCC(=O)NCc2ccccc2-c2cccc(C)c2)CC1")
7.32

The measured values listed here are drawn from ChEMBL document CHEMBL3351555.
